Recorded EC50, one value per entry.
# experimental system: FPR2 (Homo sapiens)
# Sequence (P25090 1-351): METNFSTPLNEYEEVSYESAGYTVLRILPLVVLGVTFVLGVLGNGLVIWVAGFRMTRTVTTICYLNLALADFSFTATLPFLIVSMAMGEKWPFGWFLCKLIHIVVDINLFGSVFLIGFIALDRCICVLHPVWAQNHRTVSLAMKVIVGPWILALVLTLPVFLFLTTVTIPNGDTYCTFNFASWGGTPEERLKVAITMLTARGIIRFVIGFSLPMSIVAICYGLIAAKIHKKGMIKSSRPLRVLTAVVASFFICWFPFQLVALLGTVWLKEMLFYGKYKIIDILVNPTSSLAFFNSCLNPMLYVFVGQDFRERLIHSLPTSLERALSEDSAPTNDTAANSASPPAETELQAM
# method summary: Change in calcium activity by peptide (Fura-2) in RBL cells overexpressing FPR2
# assay context: calcium activity (Fura-2), graded per Table 3, read-out: EC50 for [Ca^2+] FPR2
Peptide text beside a SMILES is read from it.

Completed entries (count: 2):
1. CSCC[C@@H](NC(=O)[C@@H](NC(=O)[C@H](Cc1ccc(O)cc1)NC(=O)[C@H](Cc1ccc(O)cc1)NC(=O)[C@H](CCCCN)NC(=O)[C@H](Cc1c[nH]c2ccccc12)NC(=O)[C@@H](N)CCCCN)C(C)C)C(N)=O [Peptide 96] (HELM PEPTIDE1{K.W.K.Y.Y.V.[dM].[am]}$$$$V2.0)
< 10 nM
2. CCCC(=O)N[C@@H](CCSC)C(=O)N[C@@H](CCCNC(=N)N)C(=O)N[C@@H](Cc1ccc(O)cc1)C(=O)N[C@@H](CCCCN)C(=O)N[C@H](C(=O)N[C@H](CCSC)C(N)=O)C(C)C [Peptide 15] (HELM PEPTIDE1{[CCCC(=O)[*:2]].M.R.Y.K.V.[dM].[am]}$$$$V2.0)
< 10 nM

Record CCCC(=O)N[C@@H](CCSC)C(=O)N[C@@H](CCCCN)C(=O)N[C@@H](Cc1ccc(O)cc1)C(=O)N[C@@H](CCCCN)C(=O)N1CCC[C@H]1C(=O)N[C@H](CCSC)C(N)=O [Peptide 72] (HELM PEPTIDE1{[CCCC(=O)[*:2]].M.K.Y.K.P.[dM].[am]}$$$$V2.0) , field EC50: 11 to 100 nM

Record CSCC[C@@H](NC(=O)[C@H](Cc1ccc(O)cc1)NC(=O)[C@H](Cc1ccc(O)cc1)NC(=O)[C@H](Cc1ccc(O)cc1)NC(=O)[C@H](CCCNC(=N)N)NC(=O)[C@H](Cc1c[nH]c2ccccc12)NC(=O)[C@@H](N)CCCNC(=N)N)C(N)=O [Peptide 123] (HELM PEPTIDE1{R.W.R.Y.Y.Y.[dM].[am]}$$$$V2.0) , field EC50: < 10 nM

---

# experimental system: FPR1 (Homo sapiens)
# Sequence (P21462 whole entry, species assumed): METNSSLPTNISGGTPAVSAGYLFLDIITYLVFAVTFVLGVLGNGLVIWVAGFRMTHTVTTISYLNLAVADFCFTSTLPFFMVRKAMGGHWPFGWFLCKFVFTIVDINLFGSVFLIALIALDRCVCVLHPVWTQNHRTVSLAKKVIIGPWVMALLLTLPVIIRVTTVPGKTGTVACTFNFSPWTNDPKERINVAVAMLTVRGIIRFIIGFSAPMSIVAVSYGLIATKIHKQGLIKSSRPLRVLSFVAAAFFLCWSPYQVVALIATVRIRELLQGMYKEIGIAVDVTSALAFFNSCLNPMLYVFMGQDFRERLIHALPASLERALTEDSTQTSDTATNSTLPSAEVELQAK
# method summary: Change in calcium activity by peptide, FPR1 activation effect
# Format: cell-based
# assay context: calcium activity (Fura-2), graded per Table 3, read-out: EC50 for [Ca^2+] FPR1
pEC50: −log10 of the molar value. Peptide text beside a SMILES is read from it.
Recorded pEC50, one value per entry.

1) CCCC(=O)N[C@@H](Cc1c[nH]cn1)C(=O)N[C@@H](CCCCN)C(=O)N[C@@H](Cc1ccc(O)cc1)C(=O)N[C@@H](CCCCN)C(=O)N1CCC[C@H]1C(=O)N[C@H](CCSC)C(N)=O [Peptide 148] (HELM PEPTIDE1{[CCCC(=O)[*:2]].H.K.Y.K.P.[dM].[am]}$$$$V2.0)
< 5.00
2) CSCC[C@H](NC(=O)[C@@H]1CCCN1C(C)=O)C(=O)N[C@@H](CCCCN)C(=O)N[C@@H](Cc1ccc(O)cc1)C(=O)N[C@@H](CCCCN)C(=O)N[C@H](C(=O)N[C@H](CCSC)C(N)=O)C(C)C [Peptide 26] (HELM PEPTIDE1{[ac].P.M.K.Y.K.V.[dM].[am]}$$$$V2.0)
< 5.00
3) CSCC[C@H](NC(C)=O)C(=O)N[C@@H](CCCCN)C(=O)N[C@@H](Cc1ccc(O)cc1)C(=O)N[C@@H](Cc1c[nH]c2ccccc12)C(=O)N[C@@H](Cc1ccc(O)cc1)C(=O)N[C@H](CCSC)C(N)=O [Peptide 90] (HELM PEPTIDE1{[ac].M.K.Y.W.Y.[dM].[am]}$$$$V2.0)
< 5.00
4) CSCC[C@H](NC(=O)[C@@H]1CCCN1C(C)=O)C(=O)N[C@@H](CCCNC(=N)N)C(=O)N[C@@H](Cc1ccc(O)cc1)C(=O)N[C@@H](CCCCN)C(=O)N1CCC[C@H]1C(=O)N[C@H](CCSC)C(N)=O [Peptide 63] (HELM PEPTIDE1{[ac].P.M.R.Y.K.P.[dM].[am]}$$$$V2.0)
< 5.00
5) CCCCCCCC(=O)N[C@@H](CCCNC(=N)N)C(=O)N[C@@H](CCSC)C(=O)N[C@@H](CCCNC(=N)N)C(=O)N[C@@H](Cc1ccc(O)cc1)C(=O)N[C@@H](CCCCN)C(=O)N[C@@H](Cc1ccc(O)cc1)C(=O)N[C@H](CCSC)C(N)=O [Peptide 40] (HELM PEPTIDE1{[CCCCCCCC(=O)[*:2]].R.M.R.Y.K.Y.[dM].[am]}$$$$V2.0)
< 5.00

Record CSCC[C@H](NC(=O)[C@@H](N)CCCNC(=N)N)C(=O)N[C@@H](CCCNC(=N)N)C(=O)N[C@@H](Cc1ccc(O)cc1)C(=O)N[C@@H](Cc1c[nH]c2ccccc12)C(=O)N[C@@H](Cc1ccc(O)cc1)C(=O)N[C@H](CCSC)C(N)=O [Peptide 81] (HELM PEPTIDE1{R.M.R.Y.W.Y.[dM].[am]}$$$$V2.0) , field pEC50: < 5.00

Record CCCC(=O)N[C@@H](CCSC)C(=O)N[C@@H](CCCNC(=N)N)C(=O)N[C@@H](Cc1ccc(O)cc1)C(=O)N[C@@H](CCCCN)C(=O)N1CCC[C@H]1C(=O)N[C@H](CCSC)C(N)=O [Peptide 56] (HELM PEPTIDE1{[CCCC(=O)[*:2]].M.R.Y.K.P.[dM].[am]}$$$$V2.0) , field pEC50: < 5.00

Record CSCC[C@H](NC(=O)[C@H](CCCNC(=N)N)NC(C)=O)C(=O)N[C@@H](CCCNC(=N)N)C(=O)N[C@@H](Cc1ccc(O)cc1)C(=O)N[C@@H](Cc1ccc(O)cc1)C(=O)N[C@@H](Cc1ccc(O)cc1)C(=O)N[C@H](CCSC)C(N)=O [Peptide 125] (HELM PEPTIDE1{[ac].R.M.R.Y.Y.Y.[dM].[am]}$$$$V2.0) , field pEC50: < 5.00

Record CSCC[C@@H](NC(=O)[C@@H]1CCCN1C(=O)[C@H](Cc1c[nH]c2ccccc12)NC(=O)[C@H](Cc1ccc(O)cc1)NC(=O)[C@H](CCCCN)NC(=O)[C@H](Cc1c[nH]cn1)NC(C)=O)C(N)=O [Peptide 150] (HELM PEPTIDE1{[ac].H.K.Y.W.P.[dM].[am]}$$$$V2.0) , field pEC50: 5.00 to 6.00

Record CCCC(=O)N1CCC[C@H]1C(=O)N[C@@H](CCSC)C(=O)N[C@@H](CCCNC(=N)N)C(=O)N[C@@H](Cc1ccc(O)cc1)C(=O)N[C@@H](CCCCN)C(=O)N1CCC[C@H]1C(=O)N[C@H](CCSC)C(N)=O [Peptide 64] (HELM PEPTIDE1{[CCCC(=O)[*:2]].P.M.R.Y.K.P.[dM].[am]}$$$$V2.0) , field pEC50: < 5.00

Record CSCC[C@@H](NC(=O)[C@@H](NC(=O)[C@H](CC(C)C)NC(=O)[C@H](Cc1ccc(O)cc1)NC(=O)[C@H](CCCNC(=N)N)NC(=O)[C@H](Cc1c[nH]c2ccccc12)NC(=O)[C@@H](N)CCCNC(=N)N)C(C)C)C(N)=O [Peptide 158] (HELM PEPTIDE1{R.W.R.Y.L.V.[dM].[am]}$$$$V2.0) , field pEC50: 5.00 to 6.00

Record CSCC[C@@H](NC(=O)[C@@H]1CCCN1C(=O)[C@H](CCCCN)NC(=O)[C@H](Cc1ccc(O)cc1)NC(=O)[C@H](CCCCN)NC(=O)[C@@H](N)Cc1c[nH]cn1)C(N)=O [Peptide 146] (HELM PEPTIDE1{H.K.Y.K.P.[dM].[am]}$$$$V2.0) , field pEC50: < 5.00

Record CSCC[C@H](NC(=O)[C@@H](N)Cc1c[nH]cn1)C(=O)N[C@@H](CCCCN)C(=O)N[C@@H](Cc1ccc(O)cc1)C(=O)N[C@@H](CCCCN)C(=O)N[C@H](C(=O)N[C@H](CCSC)C(N)=O)C(C)C [Peptide 21] (HELM PEPTIDE1{H.M.K.Y.K.V.[dM].[am]}$$$$V2.0) , field pEC50: < 5.00
